// IC50 lookup, one value per entry
Biological target: Human immunodeficiency virus type 1 reverse transcriptase (Human immunodeficiency virus 1)

Use these answered entries as a reference point.
Simply: "CCOCn1c(C)c(CNc2ccccc2[N+](=O)[O-])c(=O)[nH]c1=O" , Human immunodeficiency virus type 1 reverse transcriptase (Human immunodeficiency virus 1), IC50 = > 100 µM

Item "CCOCn1c(C)c(CNc2cc(C)ccc2C)c(=O)[nH]c1=O" was tested on Human immunodeficiency virus type 1 reverse transcriptase (Human immunodeficiency virus 1); the reported IC50 is 26.2 µM

Entry "CCOCn1c(C)c(CNc2ccccn2)c(=O)[nH]c1=O" : IC50 on Human immunodeficiency virus type 1 reverse transcriptase (Human immunodeficiency virus 1) = 54.7 µM

// molecule "Cc1c(CN(C)c2ccccc2)c(=O)[nH]c(=O)n1COCc1ccccc1" , assay Human immunodeficiency virus type 1 reverse transcriptase (Human immunodeficiency virus 1), IC50 value: 3.49 µM

# lookup: "Cc1c(CNC2CCCCC2)c(=O)[nH]c(=O)n1COCc1ccccc1" on Human immunodeficiency virus type 1 reverse transcriptase (Human immunodeficiency virus 1), IC50 = 5.09 µM

Next:
Given the molecule "CCOCn1c(C)c(CNc2cc(Cl)c(Cl)cc2Cl)c(=O)[nH]c1=O" and test system Human immunodeficiency virus type 1 reverse transcriptase (Human immunodeficiency virus 1), the measured IC50 is 0.82 µM

Observed IC50, Human immunodeficiency virus type 1 reverse transcriptase (Human immunodeficiency virus 1), "Cc1ccc(NCc2c(C)n(COCc3ccccc3)c(=O)[nH]c2=O)cc1" : 13.8 µM

Item "Cc1c(CNc2cc(Cl)c(Cl)cc2Cl)c(=O)[nH]c(=O)n1COCc1ccccc1" ; assay system Human immunodeficiency virus type 1 reverse transcriptase (Human immunodeficiency virus 1); IC50 reported as > 100 µM
